Consider the following compounds and their measured DRS from MAX-based deconvolution readings.
System: REH
Test: Cell viability (CellTiter Glo), compressed perturbation pools with informed pool design, MAX-based deconvolution, REH;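 further: higher DRS means a larger drug effect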
Conditions: REH, Samples, 7 Pick 3 informed perturbation pools
Lab note: write the figure by itself, no unit.

// solved cases for DRS from MAX-based deconvolution follow
COMPOUND	DRS from MAX-based deconvolution
Cn1cnc2c(F)c(Nc3ccc(Br)cc3F)c(C(=O)NOCCO)cc21	0.00
CO[C@H]1C[C@@H]2CC[C@@H](C)[C@@](O)(O2)C(=O)C(=O)N2CCCC[C@H]2C(=O)O[C@H]([C@H](C)C[C@@H]2CC[C@@H](OC(=O)C(C)(CO)CO)[C@H](OC)C2)CC(=O)[C@H](C)/C=C(\C)[C@@H](O)[C@@H](OC)C(=O)[C@H](C)C[C@H](C)/C=C/C=C/C=C/1C	9.23
Cc1[nH]c2ccccc2c1CCNCc1ccc(/C=C/C(=O)NO)cc1	3.96
CNC(=O)c1cc(Oc2ccc(NC(=O)Nc3ccc(Cl)c(C(F)(F)F)c3)c(F)c2)ccn1	2.97
CCOc1cc2ncc(C#N)c(Nc3ccc(OCc4ccccn4)c(Cl)c3)c2cc1NC(=O)/C=C/CN(C)C	34.11

Now for a further compound.
# input Dear colleague, I am looking for the recorded DRS from MAX-based deconvolution of the following compound: O=C(/C=C\n1cnc(-c2cc(C(F)(F)F)cc(C(F)(F)F)c2)n1)NNc1cnccn1 [Selinexor]
# output 2.51

====

Tested on: REH
Assay: ATP-based luminescence cell viability (CellTiter Glo), drug response score, REH
Set-up: scale not given here
Conditions: Target compression, 5 Pick 3 pools
MEASURED_QUANTITY: DRS from deconvolution
Lab note: write the figure by itself, no unit.

SAMPLE_SMILES	DRS from deconvolution
Cc1[nH]c2ccccc2c1CCNCc1ccc(/C=C/C(=O)NO)cc1	12.12
COc1c(OCCCN2CCOCC2)ccc2c1N=C(NC(=O)c1cnc(N)nc1)N1CCN=C21	12.96
CC1(C)CCC(CN2CCN(c3ccc(C(=O)NS(=O)(=O)c4ccc(NCC5CCOCC5)c([N+](=O)[O-])c4)c(Oc4cnc5[nH]ccc5c4)c3)CC2)=C(c2ccc(Cl)cc2)C1	1.56

Now for a further compound.
# input Dear colleague, I am looking for the recorded DRS from deconvolution of the following compound: N#Cc1ccnc(N2C(=O)CC[C@H]2C(=O)N(c2cncc(F)c2)[C@H](C(=O)NC2CC(F)(F)C2)c2ccccc2Cl)c1
# output 0.53

====

Tested on: MOLT-4
Assay: Cell viability (CellTiter Glo), compressed perturbation pools with informed pool design, MAX-based deconvolution, MOLT-4
Settings: MOLT-4; compressed perturbation pools, informed pool design; MAX-based deconvolution
Param label: returns satisfied when DRS, MOLT-4, MAX < 4, returns not satisfied otherwise, including exact equality.

COMPOUND	CATEGORY
CO[C@H]1C[C@@H]2CC[C@@H](C)[C@@](O)(O2)C(=O)C(=O)N2CCCC[C@H]2C(=O)O[C@H]([C@H](C)C[C@@H]2CC[C@@H](OC(=O)C(C)(CO)CO)[C@H](OC)C2)CC(=O)[C@H](C)/C=C(\C)[C@@H](O)[C@@H](OC)C(=O)[C@H](C)C[C@H](C)/C=C/C=C/C=C/1C [Temsirolimus]	satisfied

# input Would you kindly verify if DRS, MOLT-4, MAX of COc1cc2ncnc(Nc3ccc(F)c(Cl)c3)c2cc1NC(=O)/C=C/CN1CCCCC1 [Dacomitinib] is strictly less than 4?
# output satisfied

====

System: co-culture of three cancer cell lines
Experiment: Cell viability (CellTiter Glo) of compressed target pools, co-cultures of three cell lines (Target Compression)
Assay type: cell-based
Conditions: 7 Pick 3, Pool 7 (CCRF-CFM, CCRF-HSB2, MOLT-4)
MEASURED_QUANTITY: DRS of pool
Lab note: write the figure by itself, no unit.

// solved cases for DRS of pool follow
SAMPLE_SMILES	DRS of pool
N#Cc1ccnc(N2C(=O)CC[C@H]2C(=O)N(c2cncc(F)c2)[C@H](C(=O)NC2CC(F)(F)C2)c2ccccc2Cl)c1	0.95
COc1c(OCCCN2CCOCC2)ccc2c1N=C(NC(=O)c1cnc(N)nc1)N1CCN=C21	10.65
Cc1[nH]c2ccccc2c1CCNCc1ccc(/C=C/C(=O)NO)cc1	16.92

Now for a further compound.
# input Dear colleague, I am looking for the recorded DRS of pool of the following compound: CC1(C)CCC(CN2CCN(c3ccc(C(=O)NS(=O)(=O)c4ccc(NCC5CCOCC5)c([N+](=O)[O-])c4)c(Oc4cnc5[nH]ccc5c4)c3)CC2)=C(c2ccc(Cl)cc2)C1
# output 1.35

====

Consider the following molecules and their measured DRS from deconvolution readings.
System: NALM-6
Test: ATP-based luminescence cell viability (CellTiter Glo), drug response score, NALM-6
Settings: NALM-6, Target compression, 7 Pick 3 pools
Lab note: write the figure by itself, no unit.

SAMPLE_SMILES	DRS from deconvolution
COc1c(OCCCN2CCOCC2)ccc2c1N=C(NC(=O)c1cnc(N)nc1)N1CCN=C21	13.74
Cc1[nH]c2ccccc2c1CCNCc1ccc(/C=C/C(=O)NO)cc1	15.85

# input Dear colleague, I am looking for the recorded DRS from deconvolution of the following molecule: CC1(C)CCC(CN2CCN(c3ccc(C(=O)NS(=O)(=O)c4ccc(NCC5CCOCC5)c([N+](=O)[O-])c4)c(Oc4cnc5[nH]ccc5c4)c3)CC2)=C(c2ccc(Cl)cc2)C1
# output 9.54

# input Dear colleague, I am looking for the recorded DRS from deconvolution of the following molecule: N#Cc1ccnc(N2C(=O)CC[C@H]2C(=O)N(c2cncc(F)c2)[C@H](C(=O)NC2CC(F)(F)C2)c2ccccc2Cl)c1
# output 0.00

====

System: co-culture of three cancer cell lines
Test: Cell viability (CellTiter Glo) of compressed target pools, co-cultures of three cell lines (Target Compression)
Assay type: cell-based
Conditions: 5 Pick 3, Pool 2 (SUP-B15, CCRF-HSB2, MOLT-4)
MEASURED_QUANTITY: DRS of pool
Lab note: write the figure by itself, no unit.

COMPOUND	DRS of pool
Cc1[nH]c2ccccc2c1CCNCc1ccc(/C=C/C(=O)NO)cc1 [Panobinostat]	18.46
CC1(C)CCC(CN2CCN(c3ccc(C(=O)NS(=O)(=O)c4ccc(NCC5CCOCC5)c([N+](=O)[O-])c4)c(Oc4cnc5[nH]ccc5c4)c3)CC2)=C(c2ccc(Cl)cc2)C1 [Venetoclax]	13.53
COc1c(OCCCN2CCOCC2)ccc2c1N=C(NC(=O)c1cnc(N)nc1)N1CCN=C21 [Copanlisib]	6.47

Now for a further compound.
# input Observed DRS of pool on co-culture of three cancer cell lines for N#Cc1ccnc(N2C(=O)CC[C@H]2C(=O)N(c2cncc(F)c2)[C@H](C(=O)NC2CC(F)(F)C2)c2ccccc2Cl)c1 [Ivosidenib] , please.
# output 0.60

====

Tested on: REH
Experiment: Cell viability (CellTiter Glo), compressed perturbation pools with informed pool design, SUM-based deconvolution, REH
Set-up: scale not given here
Given measured DRS, REH, SUM, output TRUE if it is greater than or equal to 0.4 and FALSE if not.

As a guide, the following entries are already answered.
COMPOUND	CATEGORY
COc1cc2nccc(Oc3ccc(NC(=O)NC4CC4)c(Cl)c3)c2cc1C(N)=O	FALSE
C[C@@H](Oc1cc(-c2cnn(C3CCNCC3)c2)cnc1N)c1c(Cl)ccc(F)c1Cl	FALSE
O=C(/C=C\n1cnc(-c2cc(C(F)(F)F)cc(C(F)(F)F)c2)n1)NNc1cnccn1 [Selinexor]	TRUE
CNC(=O)c1ccc(N2C(=S)N(c3cnc(C#N)c(C(F)(F)F)c3)C(=O)C23CCC3)cc1F [Apalutamide]	TRUE
O=C(/C=C/c1cccc(S(=O)(=O)Nc2ccccc2)c1)NO	TRUE

// next entry
# input Answer whether DRS, REH, SUM of COc1cc2ncnc(Nc3ccc(F)c(Cl)c3)c2cc1NC(=O)/C=C/CN1CCCCC1 is greater than or equal to 0.4.
# output TRUE

====

System: library of cancer cell lines
Experiment: Hit profile of cancer drugs across library of cancer cell lines (cell viability)
Type: cell-based
Conditions: across cancer cell lines screened individually

MOLECULE	Hits (hit profile)
N#Cc1ccnc(N2C(=O)CC[C@H]2C(=O)N(c2cncc(F)c2)[C@H](C(=O)NC2CC(F)(F)C2)c2ccccc2Cl)c1 [Ivosidenib]	None
Cc1[nH]c2ccccc2c1CCNCc1ccc(/C=C/C(=O)NO)cc1 [Panobinostat]	All
CC1(C)CCC(CN2CCN(c3ccc(C(=O)NS(=O)(=O)c4ccc(NCC5CCOCC5)c([N+](=O)[O-])c4)c(Oc4cnc5[nH]ccc5c4)c3)CC2)=C(c2ccc(Cl)cc2)C1 [Venetoclax]	One

====

Consider the following molecules and their measured drug response score (DRS) readings.
Tested on: NALM-6
Assay: ATP-based luminescence cell viability (CellTiter Glo), drug response score, NALM-6
Details: NALM-6, screened individually (Compress: None)
Lab note: write the figure by itself, no unit.

SAMPLE_SMILES	SUBJECT_OF_TEST	drug response score (DRS)
CC1(C)CCC(CN2CCN(c3ccc(C(=O)NS(=O)(=O)c4ccc(NCC5CCOCC5)c([N+](=O)[O-])c4)c(Oc4cnc5[nH]ccc5c4)c3)CC2)=C(c2ccc(Cl)cc2)C1	NALM-6	7.30

# input Dear colleague, I am looking for the recorded drug response score (DRS) of the following molecule: COc1c(OCCCN2CCOCC2)ccc2c1N=C(NC(=O)c1cnc(N)nc1)N1CCN=C21
# output 13.14

# input Dear colleague, I am looking for the recorded drug response score (DRS) of the following molecule: Cc1[nH]c2ccccc2c1CCNCc1ccc(/C=C/C(=O)NO)cc1
# output 16.30

# input Dear colleague, I am looking for the recorded drug response score (DRS) of the following molecule: N#Cc1ccnc(N2C(=O)CC[C@H]2C(=O)N(c2cncc(F)c2)[C@H](C(=O)NC2CC(F)(F)C2)c2ccccc2Cl)c1
# output 0.00
